- Tested on: T-47D breast
- assaySummary: NCI-60 one-dose screen, 48 h
- studyConditions: 10 µM unless noted
- Procedure: Growth inhibition of the T-47D human tumor cell line is measured as a screen for anti-cancer activity. Cells are grown in 96 well plates and exposed to the test compound for 48 hours. Compounds are tested at a single concentration, which is 10^-5 M for most compounds. The reported endpoint is percent growth (GI% or GIPRCNT), where numbers from 0 - 100% represent growth inhibition, and numbers from -100% - 0 represent cell death. For example, a value of 40 represents 60% growth inhibition. […]
About 83,000 compounds went through this panel and 20% of them were active in at least one assay; those are over-represented in the sample as a whole. Activity calls are given as the source filed them. The calls were made as follows: active = growth percent below 10; inactive = the rest.
A correct response names exactly one class from active, inactive

Call for entry Nc1cc2c(cc1Cl)C(=O)c1ccccc1C2=O :
inactive

Any idea what this test logged for Cc1ccc(/C=N/NC(N)=S)s1 ?
inactive

Kindly provide the recorded test outcome for the following molecule: CCCCN(C=S)CCCC
inactive

GET /call?item= Nc1ccccc1SC1CC(=O)N(c2ccc(Cl)c(Cl)c2)C1=O (configuration not stated) returns the recorded outcome of this test.
inactive

Give the logged outcome of this assay for the following molecule: C1=NCCc2ccccc21
inactive

***
Query: recorded result category for Nc1ccc2c(c1)Cc1cc(N)c(N)cc1-2 in this test
inactive

Check the results log: what was the call for C=C1C(=O)C2CCC1C2 (configuration not stated) ?
inactive

Test call, this molecule: CC(=O)OCC1CCC(COC(C)=O)CC1 (configuration not stated)
inactive

// return assay outcome for Nc1nc(N)nc(N2CCCCC2)n1
inactive

###

- Test system: NCI-H226 lung
- assaySummary: NCI-60 one-dose screen, 48 h (100 = growth as untreated, 0 = no growth, -100 = all killed)
- studyConditions: 10 µM unless noted
- Protocol: Growth inhibition of the NCI-H226 human Non-Small Cell Lung tumor cell line is measured as a screen for anti-cancer activity. Cells are grown in 96 well plates and exposed to the test compound for 48 hours. Compounds are tested at a single concentration, which is 10^-5 M for most compounds. The reported endpoint is percent growth (GI% or GIPRCNT), where numbers from 0 - 100% represent growth inhibition, and numbers from -100% - 0 represent cell death. […]
The panel holds about 83,000 compounds, 20% with a hit somewhere; the sample as a whole holds those more often. The source made the active and inactive calls. The calls were made as follows: active = growth percent below 10; inactive = the rest.
This section presents compounds with their documented growth values.

Answer with reported growth of CC(=O)OCC1CCC(COC(C)=O)CC1 (stereo not drawn)
105% (inactive)

Fill in growth for record OC1Cc2ccccc2C1
101% (inactive)

Identify growth associated with the compound Cc1ccc2[nH]c3ccccc3c2c1
103% (inactive)

Fill in growth for record Cn1c(=O)c2[nH]c(CC(=O)O)nc2n(C)c1=O
90.9% (inactive)

State its growth: CC(C)C(=O)OCCOc1ccc(C(C)(C)C)cc1
99.4% (inactive)

Supply recorded growth for O=C(O)Cc1cccc2ccccc12 here.
117% (inactive)

Check the records and state growth for NC(=S)c1c(N)n(C2OC(CO)C(O)C2O)c2ncnc(N)c12 (stereo not drawn)
14% (inactive)

For the compound Cc1ccc(Cc2ccc(C)cc2)cc1 , give its reported growth.
100% (inactive)

Check the records and state growth for CCCC(=O)CC(=O)c1ccccc1
91.7% (inactive)

Kindly indicate its recorded growth. Item: CC(=O)NNC(=S)/N=C\C(C(=O)c1ccccc1)=C(/O)c1ccccc1
96.2% (inactive)

Others:
Output measured growth for this item: COc1cc(-c2ccc(NC(=O)CC(C)=O)c(OC)c2)ccc1NC(=O)CC(C)=O
91.4% (inactive)

Let me know recorded growth for O=C(NCc1ccccc1)/C(=C/c1ccccc1)NC(=O)c1ccccc1 , thanks.
98% (inactive)

For the compound Cc1ccc[n+](CCC(N)=O)c1 , give its reported growth.
99.6% (inactive)

Give a short answer stating reported growth for COc1ccc(C)cc1NC(=O)SC(C)C .
89.6% [100 µM] (inactive)

Give recorded growth. C1=NCCc2ccccc21
85.8% (inactive)

Please supply the value of reported growth for the item CCOC(=O)c1ccc(NC(=O)Nc2nccs2)cc1
19.9% (inactive)

Quickly give me recorded growth for NNc1ncnc2nc[nH]c12
47.9% (inactive)

Assign growth to the following record: CC(CC(CCC(=O)O)(c1ccccc1)c1ccccc1)N(C)C (stereo not drawn)
95.3% (inactive)

For C[n+]1c(/C=C\C=C\N2CCCCC2)sc2ccccc21 , write its growth.
17.7% (inactive)

Give the value of growth reported for the following: Cc1cccc(C)c1NC(=S)/N=C\c1c(O)[nH]c(=O)[nH]c1=O
100% (inactive)

Answer with the recorded growth for the compound listed here: OCCc1ccc(Cl)cc1
99.9% (inactive)

Return reported growth. Input compound: CCOC(=O)CSCCC#N
98.3% (inactive)

Determine its reported growth: CCOP(=O)(NC(c1ccccc1)c1ccccc1)OCC
103% (inactive)
